Target: HCMV polymerase (Human cytomegalovirus, UniProt P08546)
Construct: made in house; host or cells: recombinant baculovirus-infected SF-9 cells
Sequence (P08546 whole entry): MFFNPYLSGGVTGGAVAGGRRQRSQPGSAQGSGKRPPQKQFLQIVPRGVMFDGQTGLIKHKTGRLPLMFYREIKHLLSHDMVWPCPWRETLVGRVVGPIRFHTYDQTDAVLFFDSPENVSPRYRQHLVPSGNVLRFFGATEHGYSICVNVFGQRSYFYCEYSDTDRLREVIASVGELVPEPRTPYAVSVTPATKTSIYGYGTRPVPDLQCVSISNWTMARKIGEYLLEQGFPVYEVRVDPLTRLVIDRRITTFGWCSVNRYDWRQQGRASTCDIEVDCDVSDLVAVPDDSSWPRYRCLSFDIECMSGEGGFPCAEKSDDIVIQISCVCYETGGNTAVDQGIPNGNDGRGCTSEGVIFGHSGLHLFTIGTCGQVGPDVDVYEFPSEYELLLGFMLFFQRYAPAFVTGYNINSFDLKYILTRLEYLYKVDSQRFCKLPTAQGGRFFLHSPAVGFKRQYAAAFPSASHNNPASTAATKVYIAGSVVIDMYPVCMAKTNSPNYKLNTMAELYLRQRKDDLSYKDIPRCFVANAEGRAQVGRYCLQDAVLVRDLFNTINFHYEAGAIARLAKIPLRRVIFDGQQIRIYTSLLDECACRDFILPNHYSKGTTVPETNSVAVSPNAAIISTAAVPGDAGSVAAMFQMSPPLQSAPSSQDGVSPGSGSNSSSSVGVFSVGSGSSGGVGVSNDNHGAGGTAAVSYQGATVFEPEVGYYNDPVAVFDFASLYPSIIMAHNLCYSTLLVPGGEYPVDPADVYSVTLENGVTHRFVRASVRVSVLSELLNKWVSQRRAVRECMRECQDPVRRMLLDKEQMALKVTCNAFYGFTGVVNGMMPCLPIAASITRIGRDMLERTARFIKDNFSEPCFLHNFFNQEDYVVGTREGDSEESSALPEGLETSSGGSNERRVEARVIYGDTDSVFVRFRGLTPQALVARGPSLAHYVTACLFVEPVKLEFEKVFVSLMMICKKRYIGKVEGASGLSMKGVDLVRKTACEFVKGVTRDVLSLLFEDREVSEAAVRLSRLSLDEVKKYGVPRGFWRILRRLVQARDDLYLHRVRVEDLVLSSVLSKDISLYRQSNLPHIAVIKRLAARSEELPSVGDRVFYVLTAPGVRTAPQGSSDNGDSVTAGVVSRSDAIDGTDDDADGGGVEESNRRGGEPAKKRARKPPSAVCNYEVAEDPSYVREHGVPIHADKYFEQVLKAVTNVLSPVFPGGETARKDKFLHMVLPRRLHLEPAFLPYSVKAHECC
Test: HCMV polymerase scintillation proximity assay (Test A, modified version)
Type: biochemical
Conditions: modified SPA assay: compounds diluted in 100% DMSO, 4.5 mM DTT in polymerase buffer
quantity_measured: pIC50
Scale for pIC50: -log10 of concentration given in mol/L; no unit attached.

Inquiry: Lookup: pIC50 / HCMV polymerase (Human cytomegalovirus, UniProt P08546) / Cn1cc(C(=O)NCc2ccc(Cl)cc2)c(=S)c2cc(CN3CCOCC3)sc21 [Example 1]
Reply text: 6.20

---

Target: HSV polymerase (Human herpesvirus 1)
Sequence (P04293 whole entry): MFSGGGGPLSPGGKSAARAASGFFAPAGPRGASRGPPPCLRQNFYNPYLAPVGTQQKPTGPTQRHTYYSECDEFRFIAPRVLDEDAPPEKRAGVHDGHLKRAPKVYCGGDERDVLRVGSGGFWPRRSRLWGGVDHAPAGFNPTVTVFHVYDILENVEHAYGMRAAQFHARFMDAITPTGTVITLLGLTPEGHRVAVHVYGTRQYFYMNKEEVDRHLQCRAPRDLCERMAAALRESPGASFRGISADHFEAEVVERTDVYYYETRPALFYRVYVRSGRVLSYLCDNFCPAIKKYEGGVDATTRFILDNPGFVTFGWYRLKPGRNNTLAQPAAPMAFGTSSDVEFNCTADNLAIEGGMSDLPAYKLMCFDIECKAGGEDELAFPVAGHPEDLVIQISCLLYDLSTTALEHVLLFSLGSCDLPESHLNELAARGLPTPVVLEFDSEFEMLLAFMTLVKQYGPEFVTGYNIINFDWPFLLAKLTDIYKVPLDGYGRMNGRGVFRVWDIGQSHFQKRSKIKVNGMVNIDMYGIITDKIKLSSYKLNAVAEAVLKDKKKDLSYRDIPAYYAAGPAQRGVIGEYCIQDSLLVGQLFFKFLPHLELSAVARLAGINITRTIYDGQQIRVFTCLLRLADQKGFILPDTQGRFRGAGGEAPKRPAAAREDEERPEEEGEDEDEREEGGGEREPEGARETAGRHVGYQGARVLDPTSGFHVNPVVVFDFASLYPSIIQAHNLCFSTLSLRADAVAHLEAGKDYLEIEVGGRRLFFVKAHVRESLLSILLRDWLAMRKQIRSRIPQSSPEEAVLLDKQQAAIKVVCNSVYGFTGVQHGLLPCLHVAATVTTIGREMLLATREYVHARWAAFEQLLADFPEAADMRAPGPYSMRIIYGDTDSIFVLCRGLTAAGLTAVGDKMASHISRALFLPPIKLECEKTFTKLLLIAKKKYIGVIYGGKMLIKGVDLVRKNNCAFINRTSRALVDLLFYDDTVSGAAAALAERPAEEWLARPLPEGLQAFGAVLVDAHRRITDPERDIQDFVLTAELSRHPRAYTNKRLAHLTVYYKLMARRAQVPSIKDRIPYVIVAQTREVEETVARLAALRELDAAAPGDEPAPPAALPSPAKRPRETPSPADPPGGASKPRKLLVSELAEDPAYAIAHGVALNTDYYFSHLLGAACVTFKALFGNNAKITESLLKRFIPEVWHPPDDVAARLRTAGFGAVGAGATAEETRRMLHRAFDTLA
quantity_measured: IC50 (nM)
Write the number in nM without appending the unit.

Inquiry: Quick check: IC50 of `Cn1cc(C(=O)NCc2ccc(Cl)cc2)c(=S)c2cc(CN3CCOCC3)sc21` ?
Reply text: 160
